- tested system: Toll-like receptor 7 (Homo sapiens)
- Sequence (Q9NYK1 whole entry, the tested form may be a part): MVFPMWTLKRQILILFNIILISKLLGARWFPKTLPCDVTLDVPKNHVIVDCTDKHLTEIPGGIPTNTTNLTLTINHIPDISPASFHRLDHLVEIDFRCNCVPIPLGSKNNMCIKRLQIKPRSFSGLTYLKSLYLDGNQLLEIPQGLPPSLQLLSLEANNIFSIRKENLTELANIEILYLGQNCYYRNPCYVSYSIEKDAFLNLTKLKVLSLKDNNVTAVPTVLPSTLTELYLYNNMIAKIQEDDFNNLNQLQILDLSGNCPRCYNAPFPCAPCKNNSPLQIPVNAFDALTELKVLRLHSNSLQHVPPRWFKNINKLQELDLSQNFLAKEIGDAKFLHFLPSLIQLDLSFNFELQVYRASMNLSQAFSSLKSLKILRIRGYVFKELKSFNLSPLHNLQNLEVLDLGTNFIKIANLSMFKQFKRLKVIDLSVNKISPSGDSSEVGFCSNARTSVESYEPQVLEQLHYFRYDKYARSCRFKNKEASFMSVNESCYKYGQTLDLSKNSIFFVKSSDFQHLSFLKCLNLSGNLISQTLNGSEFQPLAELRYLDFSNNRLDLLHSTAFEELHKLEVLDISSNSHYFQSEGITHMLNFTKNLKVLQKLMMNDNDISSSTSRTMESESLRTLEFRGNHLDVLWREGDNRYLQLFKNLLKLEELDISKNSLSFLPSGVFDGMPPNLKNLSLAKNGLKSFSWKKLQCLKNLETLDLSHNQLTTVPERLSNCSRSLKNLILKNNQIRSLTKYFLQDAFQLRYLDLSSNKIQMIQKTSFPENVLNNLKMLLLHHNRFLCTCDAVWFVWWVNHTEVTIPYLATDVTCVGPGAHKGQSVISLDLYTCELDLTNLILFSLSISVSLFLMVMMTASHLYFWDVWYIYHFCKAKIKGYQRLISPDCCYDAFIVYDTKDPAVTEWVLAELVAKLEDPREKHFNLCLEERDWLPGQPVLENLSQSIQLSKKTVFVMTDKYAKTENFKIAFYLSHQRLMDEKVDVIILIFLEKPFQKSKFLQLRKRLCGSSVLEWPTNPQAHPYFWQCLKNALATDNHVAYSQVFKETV
- procedure details: HEK TLR7 Assay: HEK-Blue TLR7 cells were purchased from Invivogen (San Diego, Calif.). The following description was taken from the product information sheet."HEK-Blue hTLR7 cells are designed for studying the stimulation of human TLR7 (hTLR7) by monitoring the activation of NF-kB. HEK-Blue hTLR7 cells were obtained by co-transfection of the hTLR7 gene and an optimized secreted embryonic alkaline phosphatase (SEAP) reporter gene into HEK293 cells. The SEAP reporter gene is placed under the control of the IFN-b minimal promoter fused to five NF-kB and AP-1-binding sites. Stimulation with a TLR7 ligand activates NF-kB and AP-1 which induce the production of SEAP, which is detected by the HEK-Blue™ Detection cell culture medium."A typical assay protocol involved the following steps:1. Cells were cultured according to the product information sheet.2. 10 mM compound stock in DMSO were first diluted to 3 mM and then 3-fold serially diluted using DMSO to afford a 10-pt dilution.3. 3 μl of the diluted DMSO were added to 57 μl HEK-Blue Detection media for a further 20-fold dilution.4. 10 μl of the diluted compound in assay media were added into 40 μl cell culture (in HEK-Blue™ Detection media) in 384-well plate. Final cell concentration=8,000 cells per well.5. The plates were incubated at 37° C. in 5% CO2 for 16 h. SEAP was determined using a spectrophotometer at 620-655 nm.
Reported EC50 values for the following compounds.

See these solved cases before continuing.
CCCC[C@@H](CCSC)Nc1nc(N)nc(C)c1Cc1cc(C(=O)NCCCP(=O)(O)O)ccc1OC :: < 100 nM
CCCC[C@@H](CCSC)Nc1nc(N)nc(C)c1Cc1cc(Cc2nn[nH]n2)ccc1OC :: < 100 nM

With those in mind, consider the next compound.
Q) For Toll-like receptor 7 (Homo sapiens), provide EC50 of `CCCC[C@@H](CCS(C)(=O)=O)Nc1nc(N)nc(C)c1Cc1cc(Cc2nn[nH]n2)ccc1OC` please.
A) < 100 nM
